The entries below are paired with their reported growth.
tested on: MOLT-4 leukemia; assay: NCI-60 one-dose screen, 48 h (100 = growth as untreated, 0 = no growth, -100 = all killed); conditions: 10 µM unless noted
The panel holds about 83,000 compounds, 20% with a hit somewhere; the sample as a whole holds those more often.
Dear colleague, please return just the value in %, with no unit written.

Solved cases below.
> print(dat)
                                   compound  value.measured
1                   C=CCSc1nnc(NC(=O)CCl)s1            90.7
2            O=C(Nc1nc2ccccc2s1)c1ccc(F)cc1             100
3  COC(=O)c1c2c(c(C)[n+]([O-])c1C)C(=O)C(NCc1cccc(OC)c1)=CC2=O             3.8
4  CCCCCCCCCCC(CN(CC)CC)C(O)c1ccccc1 (stereo unspecified)           -15.2
5  COc1ccc(-c2cc(-c3cc(OC)c(OC)c(OC)c3)c(C#N)c(=O)n2CCCCC(=O)NO)cc1            27.2

We now examine a further compound.
Input: Endpoint output: growth of N#Cc1c(-c2ccccc2)[nH]c2ncc(-c3ccccc3)n2c1=O . Value?
Output: 101

----------
System: SN12C renal
Assay: NCI-60 one-dose screen, 48 h
Conditions: 10 µM unless noted
Description: Growth inhibition of the SN12C human tumor cell line is measured as a screen for anti-cancer activity. Cells are grown in 96 well plates and exposed to the test compound for 48 hours. Compounds are tested at a single concentration, which is 10^-5 M for most compounds. The reported endpoint is percent growth (GI% or GIPRCNT), where numbers from 0 - 100% represent growth inhibition, and numbers from -100% - 0 represent cell death. For example, a value of 40 represents 60% growth inhibition. […]
Compounds without any hit were thinned out: in the full panel of roughly 83,000, 20% have a hit. Calls of active or inactive are those of the source. How the source made its calls: active means growth percent below 10; inactive means the rest.
Lab note: assign the record to one of 1.0 = active, 0.0 = inactive

Observe how each entry below is paired with its result.
Compound	Group
CN1CCN(c2cc(Nc3cc(C4CC4)[nH]n3)nc(Nc3ccc(CC(=O)NCc4cccc(F)c4)cc3)n2)CC1	0.0
C=C(C)[C@@H]1CC[C@]2(C(=O)O)CC[C@]3(C)[C@H](CC[C@@H]4[C@@]5(C)CCC(NC(=O)c6cccc(OC(C)=O)c6OC(C)=O)C(C)(C)[C@@H]5CC[C@]43C)[C@@H]12 (some centres not stated)	0.0
Nc1[nH]n2cc(-c3ccccc3)nc2c1N=Nc1ccc(S(N)(=O)=O)cc1	0.0
CCN(CC)Cc1cc(C=C2C(=O)NC(=S)NC2=O)cc(OC)c1O	0.0
COc1ccc2c(c1OC)CO[C@@H]2[C@H]1c2c(cc3c(c2OC)OCO3)CCN1S(=O)(=O)c1cn(C)cn1	0.0

Input: Query: recorded result category for O=C(O)c1ccc(-n2cc(/C=N/Nc3ccccc3)c(-c3ccc(F)cc3F)n2)cc1 in this test
Output: 0.0

Input: Next compound: CCCCCCCCCc1ccc(OCCOCCOCCOCCOCCOCCOCCOCCOCCO)cc1
Output: 0.0

Input: Now consider CSc1oc(C)nc1[P+](c1ccccc1)(c1ccccc1)c1ccccc1 .
Output: 0.0

Input: Repeat with COc1cc(OCc2cccc(Br)c2C)cc(OC)c1C=O
Output: 0.0
